- assay system: hGIPR (Homo sapiens)
- Sequence (P48546 22-466): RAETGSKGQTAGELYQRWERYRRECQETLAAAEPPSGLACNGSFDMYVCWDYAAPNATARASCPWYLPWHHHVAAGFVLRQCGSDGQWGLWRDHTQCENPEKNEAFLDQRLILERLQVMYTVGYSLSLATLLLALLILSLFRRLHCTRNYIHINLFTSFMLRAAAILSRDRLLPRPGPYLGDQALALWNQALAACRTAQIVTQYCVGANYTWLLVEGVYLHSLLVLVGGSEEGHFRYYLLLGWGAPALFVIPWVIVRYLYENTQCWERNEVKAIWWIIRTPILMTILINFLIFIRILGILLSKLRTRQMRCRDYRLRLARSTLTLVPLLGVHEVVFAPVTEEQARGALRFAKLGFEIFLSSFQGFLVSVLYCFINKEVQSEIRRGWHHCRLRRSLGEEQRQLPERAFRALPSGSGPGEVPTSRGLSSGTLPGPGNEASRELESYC
- assay remarks: Functional cAMP activity in the presence of 1% HSA
- Type: cell-based
- cond: read-out: cAMP Rel EC50, hGIPR
pEC50: −log10 of the molar value. Starred links: 1 amine or outer side, 2 acyl side, 3 side chain; linkers in the order of their positions; H or OH if unused. Non-standard residues stand in square brackets, D forms with d. Groups on a side chain read outwards from the residue. No end group written: not given here. *: point of attachment. C18 diacid = O=C(O)CCCCCCCCCCCCCCCCC(=O)*; αMePhe(2-F) = C[C@](N)(Cc1ccccc1F)C(=O)O; γGlu = O=C(O)[C@H](CCC(=O)[*:2])N[*:1]; αMe4Pal = C[C@](N)(Cc1ccncc1)C(=O)O; αMeY = C[C@](N)(Cc1ccc(O)cc1)C(=O)O; 4Pal = N[C@@H](Cc1ccncc1)C(=O)O; αMeL = CC(C)C[C@](C)(N)C(=O)O; αMeS = C[C@](N)(CO)C(=O)O; Orn = NCCC[C@H](N)C(=O)O; AEEA = NCCOCCOCC(=O)O; Aib = CC(C)(N)C(=O)O
result type: pEC50

[
  {
    "substance": "Y[Aib]QGT[αMePhe(2-F)]TSD[4Pal][αMeS]I[αMeL]LD[Orn]K([γGlu-γGlu-C18 diacid])AA[Aib]EFI[dE][αMeY]LIEGGPSSGEPPPSGGGE-NH2 [Example 748]",
    "result type": "pEC50",
    "data value": 9.06
  },
  {
    "substance": "H-Y[Aib]QGTFTSD[4Pal]S[Orn][αMeL]LDKK([AEEA-γGlu-C18 diacid])AQ[αMe4Pal]AFIEYLIE[Aib]GPSSGAPPPSGS-NH2 [Example 808]",
    "result type": "pEC50",
    "data value": 7.56
  },
  {
    "substance": "H-Y[Aib]QGTFTSD[4Pal]S[Orn][αMeL]LDKK([γGlu-γGlu-C18 diacid])AQ[αMe4Pal]AFIEYLIAGGPSSGEPPPSGTEE-NH2 [Example 981]",
    "result type": "pEC50",
    "data value": 7.68
  },
  {
    "substance": "H-Y[Aib]QGT[αMePhe(2-F)]TSD[4Pal][αMeS]I[αMeL]LD[Orn]K([AEEA-γGlu-γGlu-C18 diacid])AQ[αMe4Pal]EFI[dE][αMeY]LIEGGPSSGEPPPSGGGE-NH2 [Example 1181]",
    "result type": "pEC50",
    "data value": 9.18
  },
  {
    "substance": "H-Y[Aib]QGTFTSD[4Pal]S[Orn][αMeL]LDKK([γGlu-γGlu-C18 diacid])AQ[αMe4Pal]AFIEYLIAGGPSSGEPPPSGTEEE-NH2 [Example 982]",
    "result type": "pEC50",
    "data value": 7.71
  },
  {
    "substance": "H-Y[Aib]QGTFTSD[4Pal]SK[αMeL]LDKK([AEEA-γGlu-C18 diacid])AQ[Aib]AFIEYLIE[Aib]GPSSGAPPPSGSE-NH2 [Example 901]",
    "result type": "pEC50",
    "data value": 7.47
  },
  {
    "substance": "H-Y[Aib]QGT[αMePhe(2-F)]TSD[4Pal][αMeS]I[αMeL]LD[Orn]K([AEEA-γGlu-C18 diacid])AA[Aib]EFI[dE][αMeY]LLEGGPSSGAPPPSGS-NH2 [Example 672]",
    "result type": "pEC50",
    "data value": 8.82
  },
  {
    "substance": "H-Y[Aib]QGTFTSDFS[Orn][αMeL]LDKK([AEEA-AEEA-γGlu-C18 diacid])AQ[Aib]AFIEYLLEGGPSSGAPPPSGE-NH2 [Example 107]",
    "result type": "pEC50",
    "data value": 7.21
  },
  {
    "substance": "H-Y[Aib]QGTFTSD[4Pal]SQ[αMeL]LDKK([γGlu-γGlu-C18 diacid])AQ[Aib]AFIE[αMeY]LLEGGPSSGAPPPSGSEE-NH2 [Example 945]",
    "result type": "pEC50",
    "data value": 7.37
  },
  {
    "substance": "H-Y[Aib]QGT[αMePhe(2-F)]TSD[4Pal][αMeS]I[αMeL]LD[Orn][Orn]([AEEA-γGlu-C18 diacid])AQ[αMe4Pal]EFI[dE][αMeY]LIEGGPSSGAPPPSGS-NH2 [Example 1211]",
    "result type": "pEC50",
    "data value": 9.31
  },
  {
    "substance": "H-Y[Aib]QGTFTSD[4Pal]SQ[αMeL]LD[Orn]K([AEEA-γGlu-C18 diacid])AQ[Aib]AFIE[αMeY]LIEGGPSSGAPPPSGS-NH2 [Example 850]",
    "result type": "pEC50",
    "data value": 7.57
  }
]

Reference for the values: patent US20240270821A1
